- protocol-details: Cmax in mouse at 50 mg/kg, po
- Assay type: ADME, organism-based
- Design: dose 50 mg/kg, route oral
- condition: in vivo
Reported Cmax is given for each of the following molecules.
Answer in µM, number only, no unit symbol.

Example entries begin here.
• Cc1cc2c(F)c(Oc3ncnn4cc(OC[C@@H](C)OC(=O)CN)c(C)c34)ccc2[nH]1 = 21
• Cc1cc2c(F)c(Oc3ncnn4cc(OC[C@@H](C)OC(=O)C(C)(C)N)c(C)c34)ccc2[nH]1 = 15

Query string: I am curious: what Cmax value has been reported for Cc1cc2c(F)c(Oc3ncnn4cc(OC[C@@H](C)OC(=O)C(N)CC(C)C)c(C)c34)ccc2[nH]1 (single isomer, unassigned) ?
Result string: 31

Query string: I am curious: what Cmax value has been reported for Cc1cc2c(F)c(Oc3ncnn4cc(OC[C@@H](C)OC(=O)C(C)N)c(C)c34)ccc2[nH]1 (single isomer, unassigned; 8) ?
Result string: 21

Query string: I am curious: what Cmax value has been reported for "Cc1cc2c(F)c(Oc3ncnn4cc(OC[C@@H](C)O)c(C)c34)ccc2[nH]1" ?
Result string: 12
